Tested on: SF-268 CNS
experiment-description: NCI tumour cell line growth inhibition, 48 h
recorded-metric: TGI

# molecule, result
data = [
    ("COC(=O)/C=C1/CCC(C(=O)OC)N1 (stereo not given)", "> 100 µM"),
    ("Clc1ccc(SC(/C=C/NNC2=NC(c3ccccc3)C(c3ccccc3)=NN2)c2ccccc2)cc1 (stereo not given)", "78.1 µM"),
    ("CCCN1C(=O)CC(C)N(Cc2ccccc2Cl)C1=S (stereo not given)", "86.5 µM"),
    ("CC(=O)[C@@]1(C)CC2(CCN(C)CC2)OC1C (stereo not given in full)", "> 100 µM"),
    ("O=C1NC(SSC2=NNC3(C(=O)N2)c2ccccc2-c2ccccc23)=NNC12c1ccccc1-c1ccccc12", "> 10 µM"),
    ("Cc1ccc(C)c2c1C(O)(C#Cc1ccccc1)c1ccccc1C2(O)C#Cc1ccccc1 (stereo not given)", "> 100 µM"),
    ("C=C1C(O)C2C(=C(CCc3ccccc3)C13CC3)C(=O)C(C)(CO)C2O (stereo not given)", "> 100 µM"),
    ("CCCCCC[N+](C)(C)Cc1ccc(C[N+](C)(C)CCCCCC)cc1", "> 100 µM"),
    ("O=S(=O)(O)c1cc(O)c2c(N=Cc3ccccc3O)cc(S(=O)(=O)O)cc2c1", "> 100 µM"),
    ("Nc1ncnc2c1nnn2C1C=CC(COS(N)(=O)=O)C1 (stereo not given)", "93.6 µM"),
]

Need TGI for each of these molecules.
1. Cc1cc(S(=O)(=O)Nc2nc3cscc3c(=O)n2Cc2ccccc2)c(S)cc1Cl
2. O=C(c1ccc(Cl)cc1)c1ccc(OCCCOc2ccc(C(=O)c3ccc(Cl)cc3)cc2)cc1
3. COc1cc(C#Cc2ccc(=O)oc2C#Cc2ccccc2)cc(OC)c1OC
4. CCOC(=O)c1sc(-c2ccc(OS(=O)(=O)c3ccc(Br)s3)c(C=O)c2)nc1C
5. C=C1C(=O)O[C@@H]2C[C@@H](C)[C@@H]3C=CC(=O)[C@@]3(C)[C@@H](OC(=O)CC(=O)O[C@H]3[C@@H]4C(=C)C(=O)O[C@@H]4C[C@@H](C)[C@@H]4C=CC(=O)[C@]43C)[C@H]12

Reply:
> 100 µM
> 100 µM
5.85 µM
13.2 µM
0.374 µM

Need TGI for each of these molecules.
1. COC(=O)NCCc1[nH]nc2c1C(=O)C=C(N1CCOCC1)C2=O
2. COc1cc(-c2cc3ncccc3c3nc(N)c4cccnc4c23)cc(OC)c1OC
3. Nn1c(COc2cccc(OCc3n[nH]c(=S)n3N)c2)n[nH]c1=S
4. CC(C)/C(Cl)=N\OC(=O)Nc1ccccc1F

Reply:
1. > 100 µM
2. > 100 µM
3. > 100 µM
4. 41.9 µM

Need TGI for each of these molecules.
1. C=C(C)C(=O)O[C@H]1C[C@@]23O[C@@H]2CCC(=C[C@H]2OC(=O)C(=C)[C@H]12)COC3O (stereo not given in full)
2. c1cc(N(CCn2cccn2)CCn2cccn2)cc(N(CCn2cccn2)CCn2cccn2)c1
3. O=C1Nc2ccccc2C12CCNC2Cc1ccccc1 (stereo not given)
4. Cc1ccc(N2Cc3c(ccc4ccccc34)OP2(=O)Oc2ccc(Cl)c(C)c2)cc1 (stereo not given)

Reply:
1. > 100 µM
2. > 100 µM
3. > 100 µM
4. > 100 µM
